All values here come from patent US11352352B2.

target: P-gp (Homo sapiens); construct: expressed in transfected cells; host or cells: MDCKII-MDR1 (MDCKII canine kidney cells expressing MDR1); experiment: P-gp substrate evaluation experiment (MDCKII-MDR1 Transwell drug penetration test); assay type: in vitro ADME; conditions: dog, MDCK-MDR1, pH 7.4; read-out: ER (Efflux Ratio)
Sequence (P08183 whole entry): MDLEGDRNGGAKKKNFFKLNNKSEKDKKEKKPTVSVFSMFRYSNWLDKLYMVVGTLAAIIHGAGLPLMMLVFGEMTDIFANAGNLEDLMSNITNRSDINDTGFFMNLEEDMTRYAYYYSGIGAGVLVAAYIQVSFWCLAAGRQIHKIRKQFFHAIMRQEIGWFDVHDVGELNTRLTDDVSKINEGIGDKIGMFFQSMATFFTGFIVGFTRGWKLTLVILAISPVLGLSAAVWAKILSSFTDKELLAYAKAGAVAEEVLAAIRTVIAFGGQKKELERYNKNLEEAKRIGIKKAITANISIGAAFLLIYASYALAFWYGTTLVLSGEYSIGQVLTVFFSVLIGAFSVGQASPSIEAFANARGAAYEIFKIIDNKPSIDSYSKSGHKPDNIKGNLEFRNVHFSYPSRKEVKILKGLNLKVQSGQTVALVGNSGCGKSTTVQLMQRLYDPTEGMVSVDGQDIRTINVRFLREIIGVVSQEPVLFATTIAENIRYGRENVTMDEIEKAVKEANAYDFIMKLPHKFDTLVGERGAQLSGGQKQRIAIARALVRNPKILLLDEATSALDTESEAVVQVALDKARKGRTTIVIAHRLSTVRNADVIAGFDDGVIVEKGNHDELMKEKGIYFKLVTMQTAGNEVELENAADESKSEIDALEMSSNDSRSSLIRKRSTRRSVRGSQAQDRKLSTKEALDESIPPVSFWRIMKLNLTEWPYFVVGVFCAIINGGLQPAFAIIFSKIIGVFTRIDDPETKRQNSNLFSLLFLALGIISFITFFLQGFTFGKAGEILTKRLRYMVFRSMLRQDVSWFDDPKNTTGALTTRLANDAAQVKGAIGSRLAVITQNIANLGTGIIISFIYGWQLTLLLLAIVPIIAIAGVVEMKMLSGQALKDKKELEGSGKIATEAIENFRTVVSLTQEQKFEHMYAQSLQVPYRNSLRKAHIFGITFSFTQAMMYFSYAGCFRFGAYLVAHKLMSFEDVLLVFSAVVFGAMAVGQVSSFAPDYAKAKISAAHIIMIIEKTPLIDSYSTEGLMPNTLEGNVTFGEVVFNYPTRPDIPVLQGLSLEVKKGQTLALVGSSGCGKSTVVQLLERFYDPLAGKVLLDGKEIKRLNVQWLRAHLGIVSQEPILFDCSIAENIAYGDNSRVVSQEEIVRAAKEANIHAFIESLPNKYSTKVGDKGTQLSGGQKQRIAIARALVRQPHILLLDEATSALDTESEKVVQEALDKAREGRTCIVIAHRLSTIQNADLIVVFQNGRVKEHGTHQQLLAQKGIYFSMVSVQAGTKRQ
parameter.measured: efflux ratio at 2 h

C=CC(=O)Nc1cc(Nc2cc(-c3ccc4ncsc4c3)ncn2)c(OC)cc1NCCN(C)C; 42.6
C=CC(=O)Nc1cc(Nc2cc(-c3ccc4c(cnn4C)c3)ncn2)c(OC)cc1N1CCC(N2CCN(C)CC2)CC1; 7.7
C=CC(=O)Nc1cc(Nc2cc(-c3ccc4c(cnn4C)c3)ncn2)c(OC)cc1N1CCC(N2CCCC2)CC1; 18.1
C=CC(=O)Nc1cc(Nc2cc(-c3ccc4cnn(C)c4c3)ncn2)c(OC)cc1N1CCC(N2CCCC2)CC1; 15.3
C=CC(=O)Nc1cc(Nc2cc(-c3ccc4ncsc4c3)ncn2)c(OC)cc1N1CCN(CCN(C)C)CC1; 15.8

P. C=CC(=O)Nc1cc(Nc2cc(-c3ccc4c(cnn4C)c3)ncn2)c(OC)cc1N1CCC(N2CCN(C(C)=O)CC2)CC1
Q. C=CC(=O)Nc1cc(Nc2cc(-c3ccc4cnn(C)c4c3)ncn2)c(OC(F)F)cc1N1CCC(N2CCCC2)CC1
Req: Select the item whose efflux ratio at 2 h value is smaller, choosing between P and Q . State your choice using its label.
Resp: Q
(Q: 34.4, P: 55.7)

1. C=CC(=O)Nc1cc(Nc2cc(-c3ccc4c(cnn4C)c3)ncn2)c(OC)cc1OCCN(C)C
2. C=CC(=O)Nc1cc(Nc2cc(-c3ccc4cnn(C)c4c3)ncn2)c(OC)cc1N1CCC(N2C[C@@H](C)O[C@@H](C)C2)CC1
Req: Select the item whose efflux ratio at 2 h value is smaller, choosing between 1 and 2 . State your choice using its label.
Resp: 2

a. C=CC(=O)Nc1cc(Nc2nccc(-c3ccc4c(cnn4C)c3)n2)c(OC)cc1N(C)CCN(C)C
b. C=CC(=O)Nc1cc(Nc2cc(-c3ccc4c(cnn4C)c3)ncn2)c(OC)cc1N1C[C@@H](C)N(C)[C@@H](C)C1
Req: For this pair, a and b , which shows a numerically higher efflux ratio at 2 h? State your choice using its label.
Resp: a
(a: 5.87, b: 1.05)

P. C=CC(=O)Nc1cc(Nc2cc(-c3ccc4c(cnn4C)c3)ncn2)c(OC)cc1N(C)C1CCN(C2CCN(C)CC2)CC1
Q. C=CC(=O)Nc1cc(Nc2cc(-c3ccc4c(cnn4C)c3)ncn2)c(OC)cc1N(C)CCN(CC)CC
Req: Select the item whose efflux ratio at 2 h value is smaller, choosing between P and Q . State your choice using its label.
Resp: Q
(Q: 2.44, P: 41.4)
